Target: Human TrxR1 (Homo sapiens, UniProt Q16881)
Construct: made in house
Sequence (Q16881 151-649): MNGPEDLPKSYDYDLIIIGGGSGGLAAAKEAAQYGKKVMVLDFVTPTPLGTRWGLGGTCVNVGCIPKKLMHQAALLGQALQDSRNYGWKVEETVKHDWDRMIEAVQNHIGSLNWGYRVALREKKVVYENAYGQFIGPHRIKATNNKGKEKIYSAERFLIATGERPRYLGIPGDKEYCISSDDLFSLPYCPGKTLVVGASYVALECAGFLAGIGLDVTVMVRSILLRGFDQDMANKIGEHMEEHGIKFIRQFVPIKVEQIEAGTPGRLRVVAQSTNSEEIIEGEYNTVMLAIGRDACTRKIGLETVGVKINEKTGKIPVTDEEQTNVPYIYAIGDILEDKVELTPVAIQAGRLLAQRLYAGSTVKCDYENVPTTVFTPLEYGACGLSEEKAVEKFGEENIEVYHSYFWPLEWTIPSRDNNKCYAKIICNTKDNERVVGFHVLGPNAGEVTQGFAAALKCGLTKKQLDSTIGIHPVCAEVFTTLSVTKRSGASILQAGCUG
Assay: Human TrxR1 enzyme inhibition (DTNB reduction)
Format: biochemical
Details: hsTrxR, 15 minutes pre-incubation, compound 66.7 µM; read-out: % inhibition
Please provide measured inhibition at 66.7 µM for the entries that follow.
Give the value, in units of %, as a plain number.

CCc1ccccc1-c1nc(CN[C@@H]2C[C@@H]3C[C@H]([C@H]2C)C3(C)C)c(C)o1 on Human TrxR1 (Homo sapiens, UniProt Q16881) gives inhibition at 66.7 µM = 11.5

Cc1oc(C2CCCCC2)nc1CN[C@@H]1C[C@@H]2C[C@H]([C@H]1C)C2(C)C on Human TrxR1 (Homo sapiens, UniProt Q16881) gives inhibition at 66.7 µM = 40.2

Cc1oc(C2CCCCC2)nc1C(=O)N[C@@H]1C[C@@H]2C[C@H]([C@H]1C)C2(C)C on Human TrxR1 (Homo sapiens, UniProt Q16881) gives inhibition at 66.7 µM = 92.7

C#CCN(Cc1nc(-c2ccccc2)oc1C)[C@@H]1C[C@@H]2C[C@H]([C@H]1C)C2(C)C on Human TrxR1 (Homo sapiens, UniProt Q16881) gives inhibition at 66.7 µM = 2.61

CC1C(NCc2cn(C3OCC(O)C(O)C3O)c3ccccc23)CC2CC1C2(C)C (centres unmarked) on Human TrxR1 (Homo sapiens, UniProt Q16881) gives inhibition at 66.7 µM = 14.5

* * *

Target: Human TrxR1 (Homo sapiens)
Construct: made in house
Test: Human TrxR1 enzyme inhibition (DTNB reduction)
Assay type: biochemical
Details: 15 min preincubation (enzyme + 100 µM NADPH + compound); read-out: Human TrxR1 IC50
pIC50: −log10 of the molar value.
reportedProperty: pIC50

Please fill in: pIC50 reported for Cc1oc(-c2ccc3ccccc3c2)nc1CNC1CCCCCC1 = < 4.18

Please fill in: pIC50 reported for C[C@@H]1[C@H]2C[C@@H](C[C@H]1NCc1nc3ccccc3n1C1CCCCCC1)C2(C)C = 5.31

Please fill in: pIC50 reported for Cc1oc(C2CCCCC2)nc1CN[C@@H]1C[C@@H]2C[C@H]([C@H]1C)C2(C)C = < 4.18

Please fill in: pIC50 reported for CCc1ccccc1-c1nc(CN[C@@H]2C[C@@H]3C[C@H]([C@H]2C)C3(C)C)c(C)o1 = < 4.18

Please fill in: pIC50 reported for C#CCN(Cc1nc(-c2ccccc2)oc1C)[C@@H]1C[C@@H]2C[C@H]([C@H]1C)C2(C)C = < 4.18

Please fill in: pIC50 reported for C[C@@H]1[C@H]2C[C@@H](C[C@H]1NCc1nc3ccccc3n1C)C2(C)C = < 4.18

Please fill in: pIC50 reported for CC1C(NCc2cn(C3OCC(O)C(O)C3O)c3ccccc23)CC2CC1C2(C)C (centres unmarked) = 4.15

Please fill in: pIC50 reported for CC(=O)OC[C@H]1O[C@@H]([S-])[C@H](OC(C)=O)[C@@H](OC(C)=O)[C@@H]1OC(C)=O.CCP(CC)CC.[Au+] [AF, auranofin, reference compound] = 7.70

Please fill in: pIC50 reported for Cc1oc(-c2ccc3c(c2)OCO3)nc1CN[C@@H]1C[C@@H]2C[C@H]([C@H]1C)C2(C)C = < 4.18

Please fill in: pIC50 reported for Cc1oc(C2CCCCC2)nc1C(=O)N[C@@H]1C[C@@H]2C[C@H]([C@H]1C)C2(C)C = 4.65

Please fill in: pIC50 reported for Cc1oc(-c2ccccc2)nc1CN[C@@H]1C[C@@H]2C[C@H]([C@H]1C)C2(C)C = < 4.18
